tested on: SF-295 CNS; assay: NCI tumour cell line growth inhibition, 48 h; in the data active means GI50 below about 0.43 µM; inactive means the rest
Bench note: report the call from T (active), F (inactive)

N#Cc1ccc2c(c1)C(=O)c1c-2n(CCCCl)c(=O)c2cc([N+](=O)[O-])ccc12; F

Hi, do you know how O=C1CC(=O)N(C(=O)c2nn(-c3ccc(Cl)cc3)cc2O)N1 came out in this test?
T

Name the outcome recorded for CC(C)C[C@H](NC(=O)Cn1ccc(NCc2ccccc2)cc1=O)B(O)O in the assay.
F

Please let me know the test result on file for CCCN(CCC)c1ccc(/C=C/c2ccc3cc(OCC)ccc3n2)cc1 .
F

Please let me know the test result on file for N#CC1=C(N)Oc2c(ccc3ccccc23)C1c1ccccc1 (stereo unspecified) .
T

GET /call?item= COc1ccc(-c2oc(=O)ccc2-c2cc(OC)c(OC)c(OC)c2)cc1O returns the recorded outcome of this test.
F

Which result was noted for this compound in the test: Nc1c2c(c(O)c3c1=C(CO)C=N3)=NCCS2
T

What did the test return for CCN(Cc1ccccc1)c1ccc(CO)c(Cl)c1 ?
F

GET /call?item= CC(=O)N1C/C(=C/c2ccc(Cl)cc2)C(=O)/C(=C/c2ccc(Cl)cc2)C1 returns the recorded outcome of this test.
F

Please share the test call associated with Cc1ccc(Cc2cnc(NC(=O)/C=C/c3cccc(C)c3)s2)cc1 .
T

For COc1ccc(NC([Se])=NC23CC4CC(CC(C4)C2)C3)cc1 , what call appears in the results of this test?
F

Values were extracted from PubChem BioAssay (NCI).
